Recorded self-cleavage kobs at 10000 uM GlcN6P, one value per entry.
B1: glmS ribozyme (parent)
chain: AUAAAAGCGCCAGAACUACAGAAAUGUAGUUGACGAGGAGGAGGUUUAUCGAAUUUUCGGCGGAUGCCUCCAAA

Variants of: B1
Test: self-cleavage kobs at 10000 uM GlcN6P; higher = faster cleavage; RNA array
Conditions: with glucosamine-6-phosphate
This sample holds only a part of the variants without activity.

sequence-record	self-cleavage kobs at 10000 uM GlcN6P / s⁻¹
AUAAAAGCGCCAGAACUACAGAAAUGUAGUUGACGAGGAGGAGGUUUAUCGAAUAUUCGGCGGAUGCCUGCAAA [U55A C70G]	0.000101
AUAAAAGCGCCAGAACUACAGAAAUGUAGUUGACGAGGAGGAGGUUUAUCGAAUGUUCGGCGGAUGCCACCAAA [U55G U69A]	9.83e-05
AUAAAAGCGCCAGAACUACAGAAAUGUAGUUGACGAGGAGGCGGUUUAUCGAAUUUUCGGCGGAUACCUCCAAA [A42C G66A]	0.000305
AUAAAAGCGCUAGAACUACAGAAAUGUAGUCGACGAGGAGGAGGUUUAUCGAAUUCUCGGCGGAUGCCUCCAAA [C11U U31C U56C]	9.92e-05
